Molecular target: T1, CEACAM1 antigen (Sino Biological, Inc.) (UniProt P13688 35-428)
T1 construct: Bought antigen, coated on the ELISA plate; construct not described; also called CEACAM1 (CD66a) antigen; CD66a
T1 sequence (looked up): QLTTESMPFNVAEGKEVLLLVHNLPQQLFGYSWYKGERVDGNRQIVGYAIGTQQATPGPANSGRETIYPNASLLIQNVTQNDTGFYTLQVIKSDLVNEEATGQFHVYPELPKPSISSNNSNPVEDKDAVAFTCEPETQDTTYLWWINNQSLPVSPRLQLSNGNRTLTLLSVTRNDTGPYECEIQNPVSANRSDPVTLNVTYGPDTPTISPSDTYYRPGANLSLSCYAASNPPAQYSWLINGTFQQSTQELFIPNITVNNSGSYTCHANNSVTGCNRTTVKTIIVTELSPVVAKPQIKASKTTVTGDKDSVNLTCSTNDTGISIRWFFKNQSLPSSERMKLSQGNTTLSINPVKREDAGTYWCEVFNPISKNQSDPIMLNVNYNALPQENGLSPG
Test: ELISA, CEACAM1 coated 100 ng/well, antibody at 0.17 ng/ml
Overview of reported OD 450 nm across a group of binders:

[
  {
    "binder": "recombinant humanized anti-CD66c antibody Protein ID 3007 (Vk7 + VH6) (antibody, human IgG1, V domains shown, also called hu 3007; #43) VH: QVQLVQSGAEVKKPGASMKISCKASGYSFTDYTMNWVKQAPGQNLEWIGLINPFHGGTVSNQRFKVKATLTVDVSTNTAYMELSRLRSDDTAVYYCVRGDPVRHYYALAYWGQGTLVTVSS VL: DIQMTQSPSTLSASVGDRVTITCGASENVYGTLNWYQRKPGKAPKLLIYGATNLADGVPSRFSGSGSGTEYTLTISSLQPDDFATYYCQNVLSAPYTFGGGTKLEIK",
    "OD 450 nm": "0.09 OD 450 nm"
  },
  {
    "binder": "recombinant humanized anti-CD66c antibody Protein ID 3058 (Vk8 + VH11) (antibody, human IgG1, V domains shown, also called hu 3058; #86) VH: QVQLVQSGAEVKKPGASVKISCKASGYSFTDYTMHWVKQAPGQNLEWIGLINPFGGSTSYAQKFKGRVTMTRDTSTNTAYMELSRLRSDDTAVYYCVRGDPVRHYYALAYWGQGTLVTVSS VL: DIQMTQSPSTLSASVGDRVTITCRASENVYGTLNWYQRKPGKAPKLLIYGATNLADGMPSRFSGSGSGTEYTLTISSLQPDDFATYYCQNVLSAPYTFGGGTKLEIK",
    "OD 450 nm": "0.04 OD 450 nm"
  },
  {
    "binder": "recombinant humanized anti-CD66c antibody Protein ID 2938 (Vk5 + VH7) (antibody, human IgG1, V domains shown, also called hu 2938) VH: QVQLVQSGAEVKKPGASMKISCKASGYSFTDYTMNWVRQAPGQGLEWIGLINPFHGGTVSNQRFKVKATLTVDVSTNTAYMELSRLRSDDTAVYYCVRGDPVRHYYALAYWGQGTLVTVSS VL: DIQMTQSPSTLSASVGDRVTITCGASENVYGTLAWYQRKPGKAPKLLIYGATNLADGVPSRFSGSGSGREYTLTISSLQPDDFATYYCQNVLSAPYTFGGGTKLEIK",
    "OD 450 nm": "0.04 OD 450 nm"
  }
]
